All figures here come from patent US11208386B2.

Target: PAD3 (Homo sapiens)
Construct: made in house
Sequence (Q9ULW8 1-664): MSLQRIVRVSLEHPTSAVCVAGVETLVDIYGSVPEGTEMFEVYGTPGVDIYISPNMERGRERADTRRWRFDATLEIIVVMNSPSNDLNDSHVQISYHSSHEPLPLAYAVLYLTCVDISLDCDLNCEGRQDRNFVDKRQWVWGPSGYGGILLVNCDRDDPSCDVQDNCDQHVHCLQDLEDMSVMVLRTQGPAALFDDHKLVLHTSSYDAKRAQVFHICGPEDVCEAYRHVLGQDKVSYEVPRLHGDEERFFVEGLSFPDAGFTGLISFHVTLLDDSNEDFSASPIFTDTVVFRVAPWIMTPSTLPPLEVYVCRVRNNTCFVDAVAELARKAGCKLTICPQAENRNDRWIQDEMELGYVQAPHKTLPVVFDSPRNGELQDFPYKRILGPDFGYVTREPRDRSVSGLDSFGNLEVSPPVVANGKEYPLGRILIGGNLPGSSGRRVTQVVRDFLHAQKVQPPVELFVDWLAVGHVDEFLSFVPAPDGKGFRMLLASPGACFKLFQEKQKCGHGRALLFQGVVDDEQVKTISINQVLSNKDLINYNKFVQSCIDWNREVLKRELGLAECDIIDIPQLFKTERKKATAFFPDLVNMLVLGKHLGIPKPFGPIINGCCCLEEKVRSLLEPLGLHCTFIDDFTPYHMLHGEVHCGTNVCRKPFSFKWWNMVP
Experiment: Inactivation kinetics, PAD3
Type: biochemical
Details: kinact/KI relative to least inhibited isozyme (1.0)
Protocol: Inactivation kinetic parameters were determined by incubating PAD1, 2, or 4 (2.0 μM) or PAD3 (5.0 μM) in a pre-warmed (10 min; 37° C.) inactivation mixture (50 mM HEPES, 10 mM CaCl2, and 2 mM DTT, pH 7.6, with a final volume of 60 μL) containing various concentrations of inhibitor. […] After 15 min, reactions were quenched in liquid nitrogen and citrulline production quantified using the COLDER assay. […]
Field: Fold PAD3 Selectivity. Provide a value for each of the molecules that follow.
Answers are plain numbers, in fold.

Some solved entries appear below for comparison.
{"Record smiles": "COc1cccc2[nH]c([C@H](CCCNC(=N)CCl)NC(=O)c3cccc4c3C(=O)NC4)nc12", "Fold PAD3 Selectivity (fold)": 6.9}
{"Record smiles": "CCN1Cc2cccc(C(=O)N[C@@H](CCCNC(=N)CF)c3nc4c(OC)cccc4n3C)c2C1=O", "Fold PAD3 Selectivity (fold)": 1.0}
{"Record smiles": "Cn1c([C@H](CCCNC(=N)CCl)NC(=O)c2ccccc2C(=O)O)nc2ccccc21", "Fold PAD3 Selectivity (fold)": 1.0}
{"Record smiles": "N=C(CF)NCCC[C@H](NC(=O)c1ccc(-c2ccc(F)cc2)cc1)c1nc2ccccc2[nH]1", "Fold PAD3 Selectivity (fold)": 1.2}
{"Record smiles": "COc1cccc2c1nc([C@H](CCCNC(=N)CCl)NC(=O)c1cccc3c1C(=O)N(C(C)C)C3)n2C", "Fold PAD3 Selectivity (fold)": 1.2}

Let us examine a further case.
Noted for `COc1cccc2c1nc([C@H](CCCNC(=N)CF)NC(=O)c1cccc3c1C(=O)NC3)n2C` : its Fold PAD3 Selectivity reads 1.0
